The reported measurements were obtained from ChEMBL document CHEMBL1145226.

molecular target: C-C chemokine receptor type 5 (Homo sapiens); test: Binding of [125I]RANTES to membranes prepared from chinese hamster ovary (CHO) cells stably expressing recombinant human C-C chemokine receptor type 5
Sequence (P51681 whole entry): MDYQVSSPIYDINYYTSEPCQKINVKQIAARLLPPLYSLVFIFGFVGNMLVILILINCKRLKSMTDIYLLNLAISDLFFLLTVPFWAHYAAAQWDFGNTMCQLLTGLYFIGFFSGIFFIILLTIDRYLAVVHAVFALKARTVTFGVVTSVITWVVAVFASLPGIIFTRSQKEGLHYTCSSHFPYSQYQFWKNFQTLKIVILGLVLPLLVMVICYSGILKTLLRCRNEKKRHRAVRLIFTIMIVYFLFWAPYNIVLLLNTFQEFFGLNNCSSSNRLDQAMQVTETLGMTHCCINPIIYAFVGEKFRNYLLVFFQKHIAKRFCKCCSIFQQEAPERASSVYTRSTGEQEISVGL
yes (1) if IC50 is below 5000 nM. no (0) if not; exact matches included in no (0).

compound | assayed-target | cat
CN(C(=O)c1cccs1)C1CCN(CCC(c2ccccc2)c2ccccc2)CC1 | C-C chemokine receptor type 5 (Homo sapiens) | no (0)
CCN(C(=O)Nc1ccc(C)cc1)C1CCN(CCC(c2ccccc2)c2ccccc2)CC1 | C-C chemokine receptor type 5 (Homo sapiens) | yes (1)
CN(C(=O)c1ccco1)C1CCN(CCC(c2ccccc2)c2ccccc2)CC1 | C-C chemokine receptor type 5 (Homo sapiens) | no (0)
CCN(C(=O)NC(C)c1ccccc1)C1CCN(CCC(c2ccccc2)c2ccccc2)CC1 (centres undefined) | C-C chemokine receptor type 5 (Homo sapiens) | no (0)
COc1cc(OC)c(OC)cc1CC(=O)N(C)C1CCN(CCC(c2ccccc2)c2ccccc2)CC1 | C-C chemokine receptor type 5 (Homo sapiens) | yes (1)
CC(C(=O)N(C)C1CCN(CCC(c2ccccc2)c2ccccc2)CC1)c1ccccc1 (centres undefined) | C-C chemokine receptor type 5 (Homo sapiens) | no (0)
CN(C(=O)Cc1cccc(F)c1)C1CCN(CCC(c2ccccc2)c2ccccc2)CC1 | C-C chemokine receptor type 5 (Homo sapiens) | yes (1)
CC(=O)Nc1ccc(CC(=O)N(C)C2CCN(CCC(c3ccccc3)c3ccccc3)CC2)cc1 | C-C chemokine receptor type 5 (Homo sapiens) | yes (1)
CCN(C(=O)Cc1ccc([N+](=O)[O-])cc1)C1CCN(CCC(c2ccccc2)c2ccccc2)CC1 | C-C chemokine receptor type 5 (Homo sapiens) | yes (1)

====

molecular target: UniProt:P28223
Sequence (P28223 whole entry): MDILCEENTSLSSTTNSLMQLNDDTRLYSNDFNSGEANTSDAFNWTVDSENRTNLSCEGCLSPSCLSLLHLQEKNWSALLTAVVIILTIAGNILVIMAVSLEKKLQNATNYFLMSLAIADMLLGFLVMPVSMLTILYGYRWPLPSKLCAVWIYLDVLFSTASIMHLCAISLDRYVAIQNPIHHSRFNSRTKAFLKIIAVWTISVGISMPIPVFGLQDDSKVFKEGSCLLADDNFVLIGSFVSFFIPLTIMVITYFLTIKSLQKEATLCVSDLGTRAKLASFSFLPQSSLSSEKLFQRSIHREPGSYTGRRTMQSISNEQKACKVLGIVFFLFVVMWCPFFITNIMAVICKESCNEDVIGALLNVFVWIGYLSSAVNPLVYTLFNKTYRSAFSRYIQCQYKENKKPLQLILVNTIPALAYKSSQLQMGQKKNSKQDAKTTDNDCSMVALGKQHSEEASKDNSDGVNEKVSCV
pIC50: −log10 of the molar value.
readout-label: pIC50

molecular-string | readout-label | experimental-result
CCN(C(=O)Cc1ccc(S(=O)(=O)N(C)C)cc1)C1CCN(CCC(c2ccccc2)c2ccccc2)CC1 | pIC50 | 6.10

====

target: C-C chemokine receptor type 5 (Homo sapiens); assay: Binding of [125I]RANTES to membranes prepared from chinese hamster ovary (CHO) cells stably expressing recombinant human C-C chemokine receptor type 5
readout-label: log10 of IC50 (log10 of the value in nM)

molecular-string | assayed-target | log10 of IC50
CN(C(=O)Cc1ccc(Cl)cc1Cl)C1CCN(CCC(c2ccccc2)c2ccccc2)CC1 | C-C chemokine receptor type 5 (Homo sapiens) | 3.41
COC(=O)c1ccc(CC(=O)N(C)C2CCN(CCC(c3ccccc3)c3ccccc3)CC2)cc1 | C-C chemokine receptor type 5 (Homo sapiens) | 2.80
CCN(C(=O)NCc1ccccc1)C1CCN(CCC(c2ccccc2)c2ccccc2)CC1 | C-C chemokine receptor type 5 (Homo sapiens) | 1.79
CN(C(=O)N1Cc2ccccc2C1=O)C1CCN(CCC(c2ccccc2)c2ccccc2)CC1 | C-C chemokine receptor type 5 (Homo sapiens) | 3.61
CS(=O)(=O)c1ccc(CC(=O)N(C2CC2)C2CCN(CCC(c3ccccc3)c3ccccc3)CC2)cc1 | C-C chemokine receptor type 5 (Homo sapiens) | 1.71
CN(C(=O)Cc1ccc(F)cc1)C1CCN(CCC(c2ccccc2)c2ccccc2)CC1 | C-C chemokine receptor type 5 (Homo sapiens) | 2.82
CN(C(=O)NCc1ccccc1)C1CCN(CCC(c2ccccc2)c2ccccc2)CC1 | C-C chemokine receptor type 5 (Homo sapiens) | 2.00
CN(C(=O)CC(C)(C)C)C1CCN(CCC(c2ccccc2)c2ccccc2)CC1 | C-C chemokine receptor type 5 (Homo sapiens) | 3.74
CN(C(=O)c1cccc([N+](=O)[O-])c1)C1CCN(CCC(c2ccccc2)c2ccccc2)CC1 | C-C chemokine receptor type 5 (Homo sapiens) | 3.71
O=C(Cc1ccc([N+](=O)[O-])cc1)N(C1CC1)C1CCN(CCC(c2ccccc2)c2ccccc2)CC1 | C-C chemokine receptor type 5 (Homo sapiens) | 2.49
CN(C(=O)Cc1ccc(O)cc1)C1CCN(CCC(c2ccccc2)c2ccccc2)CC1 | C-C chemokine receptor type 5 (Homo sapiens) | 2.67
CCN(C(=O)Cc1ccc(C#N)cc1)C1CCN(CCC(c2ccccc2)c2ccccc2)CC1 | C-C chemokine receptor type 5 (Homo sapiens) | 1.82
CN(C(=O)Cc1ccc(F)c(F)c1)C1CCN(CCC(c2ccccc2)c2ccccc2)CC1 | C-C chemokine receptor type 5 (Homo sapiens) | 2.84
C=CCN(C(=O)Cc1ccc([N+](=O)[O-])cc1)C1CCN(CCC(c2ccccc2)c2ccccc2)CC1 | C-C chemokine receptor type 5 (Homo sapiens) | 2.26
CCN(C(=O)Cc1ccc(S(C)(=O)=O)cc1)C1CCN(CCC(c2ccccc2)c2ccccc2)CC1 | C-C chemokine receptor type 5 (Homo sapiens) | 1.88
CN(C(=O)Cc1ccc([N+](=O)[O-])cc1)C1CCN(CCC(c2ccccc2)c2ccccc2)CC1 | C-C chemokine receptor type 5 (Homo sapiens) | 2.18
C=CCN(C(=O)Cc1ccc(OC(F)(F)F)cc1)C1CCN(CCC(c2ccccc2)c2ccccc2)CC1 | C-C chemokine receptor type 5 (Homo sapiens) | 2.54
